Cited source for all entries: the kinase profiling compilation of Christmann-Franck et al. (2016)

Target: WEE2 (human) (UniProt P0C1S8)
Sequence (P0C1S8 whole entry, looked up): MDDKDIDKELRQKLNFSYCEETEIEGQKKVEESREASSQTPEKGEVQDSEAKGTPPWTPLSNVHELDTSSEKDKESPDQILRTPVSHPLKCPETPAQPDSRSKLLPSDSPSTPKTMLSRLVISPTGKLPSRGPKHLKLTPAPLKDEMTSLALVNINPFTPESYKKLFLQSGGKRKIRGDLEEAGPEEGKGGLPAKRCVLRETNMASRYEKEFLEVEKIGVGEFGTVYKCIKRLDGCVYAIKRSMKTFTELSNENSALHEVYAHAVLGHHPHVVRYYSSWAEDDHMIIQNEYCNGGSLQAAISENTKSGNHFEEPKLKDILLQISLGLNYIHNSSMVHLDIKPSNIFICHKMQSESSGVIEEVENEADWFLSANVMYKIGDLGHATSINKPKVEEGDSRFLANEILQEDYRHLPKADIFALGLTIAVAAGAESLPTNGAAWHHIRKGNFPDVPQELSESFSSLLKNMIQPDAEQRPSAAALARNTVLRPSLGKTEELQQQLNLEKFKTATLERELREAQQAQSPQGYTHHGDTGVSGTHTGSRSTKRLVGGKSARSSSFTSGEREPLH
Experiment: KINOMEscan competition binding
Details: compound 10.0 µM
Measurement Type: kinase still bound, per cent of control (%)
Quick reminder: number only, in %, skip the unit.

>>> readout_number("CCN1CCN(C(=O)Cc2ccc(Nc3ncc(F)c(Nc4ccc(C(=O)Nc5ccccc5Cl)cc4)n3)cc2)CC1")
12
>>> readout_number("CNC(=O)c1cc(Oc2ccc(NC(=O)Nc3ccc(Cl)c(C(F)(F)F)c3)cc2)ccn1")
87

Which kinase still bound, per cent of control reading was recorded for the compound CNC(=O)c1ccc(Nc2cc(Nc3ccccc3S(=O)(=O)C(C)C)c3cc[nH]c3n2)nc1 ?
100

====

Molecular target: EPHB3 (human) (UniProt P54753)
Sequence (P54753 whole entry, looked up): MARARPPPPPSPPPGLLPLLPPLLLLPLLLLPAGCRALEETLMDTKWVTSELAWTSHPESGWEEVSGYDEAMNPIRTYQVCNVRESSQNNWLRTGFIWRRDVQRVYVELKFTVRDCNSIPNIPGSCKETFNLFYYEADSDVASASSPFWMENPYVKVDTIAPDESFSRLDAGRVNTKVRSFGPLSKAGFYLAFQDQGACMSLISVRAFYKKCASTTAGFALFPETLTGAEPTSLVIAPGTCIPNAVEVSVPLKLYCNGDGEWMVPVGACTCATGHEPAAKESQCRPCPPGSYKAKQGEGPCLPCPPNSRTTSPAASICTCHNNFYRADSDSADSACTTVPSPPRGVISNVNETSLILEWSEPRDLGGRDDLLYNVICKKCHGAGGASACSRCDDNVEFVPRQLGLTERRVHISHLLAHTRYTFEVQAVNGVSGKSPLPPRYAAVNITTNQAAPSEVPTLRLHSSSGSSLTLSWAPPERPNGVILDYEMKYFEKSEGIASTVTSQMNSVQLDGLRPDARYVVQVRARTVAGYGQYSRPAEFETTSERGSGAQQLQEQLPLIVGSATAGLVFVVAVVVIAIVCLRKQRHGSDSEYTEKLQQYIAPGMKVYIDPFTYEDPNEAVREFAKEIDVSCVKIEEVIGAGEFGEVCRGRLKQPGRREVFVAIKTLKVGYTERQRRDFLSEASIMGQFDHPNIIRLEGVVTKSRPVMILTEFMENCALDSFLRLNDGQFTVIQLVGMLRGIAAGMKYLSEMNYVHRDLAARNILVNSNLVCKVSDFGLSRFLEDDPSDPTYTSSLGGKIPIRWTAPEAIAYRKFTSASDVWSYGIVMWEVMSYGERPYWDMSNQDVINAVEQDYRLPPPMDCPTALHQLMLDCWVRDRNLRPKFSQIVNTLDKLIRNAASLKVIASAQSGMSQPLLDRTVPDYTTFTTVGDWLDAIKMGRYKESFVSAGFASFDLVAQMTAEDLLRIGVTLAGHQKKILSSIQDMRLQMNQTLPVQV
Experiment: KINOMEscan competition binding
Conditions: compound 10.0 µM
Measurement Type: kinase still bound, per cent of control (%)
Quick reminder: number only, in %, skip the unit.

Sample records with kinase still bound, per cent of control:
>>> readout_number("CNC(=O)c1cc(Oc2ccc(NC(=O)Nc3ccc(Cl)c(C(F)(F)F)c3)cc2)ccn1")
100
>>> readout_number("O=c1cc(N2CCOCC2)oc2c(-c3cccc4c3sc3ccccc34)cccc12")
100

Param readout= kinase still bound, per cent of control; system= EPHB3 (human) (UniProt P54753); entry= C=CC(=O)Nc1ccc(CN(C(=O)Nc2c(Cl)c(OC)cc(OC)c2Cl)c2cc(Nc3ccc(N4CCN(C)CC4)cc3)ncn2)cc1 ; returns value.
100

====

Measured kinase still bound, per cent of control accompanies every entry in the list below.
Target: UniProt Q9NQU5
Sequence (Q9NQU5 whole entry, looked up): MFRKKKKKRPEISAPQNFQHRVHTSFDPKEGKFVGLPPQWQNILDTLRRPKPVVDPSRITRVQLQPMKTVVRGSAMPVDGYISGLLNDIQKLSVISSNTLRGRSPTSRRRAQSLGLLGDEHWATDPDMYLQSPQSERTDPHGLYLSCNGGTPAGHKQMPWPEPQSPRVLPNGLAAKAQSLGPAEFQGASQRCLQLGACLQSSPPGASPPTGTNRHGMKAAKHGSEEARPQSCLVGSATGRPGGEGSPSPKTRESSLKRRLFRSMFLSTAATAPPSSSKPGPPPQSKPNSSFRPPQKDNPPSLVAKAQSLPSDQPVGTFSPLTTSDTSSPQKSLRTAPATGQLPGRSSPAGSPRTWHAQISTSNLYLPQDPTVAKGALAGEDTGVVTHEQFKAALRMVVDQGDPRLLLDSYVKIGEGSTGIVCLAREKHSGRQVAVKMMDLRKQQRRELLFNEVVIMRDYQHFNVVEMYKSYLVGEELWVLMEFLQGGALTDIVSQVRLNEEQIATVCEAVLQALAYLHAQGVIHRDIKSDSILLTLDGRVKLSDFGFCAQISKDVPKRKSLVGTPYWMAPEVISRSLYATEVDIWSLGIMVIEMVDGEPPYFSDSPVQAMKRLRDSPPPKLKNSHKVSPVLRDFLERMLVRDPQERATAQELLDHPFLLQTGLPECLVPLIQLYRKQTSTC
Test: KINOMEscan competition binding
Details: compound 10.0 µM
Give just the numeric value; % need not be written.

Recorded results for 6 molecules are shown here.
>>> readout_number("N#CCNC(=O)c1ccc(-c2ccnc(Nc3ccc(N4CCOCC4)cc3)n2)cc1")
100
>>> readout_number("C=CC(=O)Nc1ccc(CN(C(=O)Nc2c(Cl)c(OC)cc(OC)c2Cl)c2cc(Nc3ccc(N4CCN(C)CC4)cc3)ncn2)cc1")
100
>>> readout_number("CCN(CC)CCCCNc1ncc2c(n1)N(C)C(=O)N(c1c(Cl)c(OC)cc(OC)c1Cl)C2")
100
>>> readout_number("O=C(Nc1cccc(Nc2ncc(Br)c(NCCc3cnc[nH]3)n2)c1)N1CCCC1")
11
>>> readout_number("O=C1NC(=O)/C(=C/c2ccc3nccc(-c4ccncc4)c3c2)S1")
83
>>> readout_number("C[C@@H](Oc1cc(-c2cnn(C3CCNCC3)c2)cnc1N)c1c(Cl)ccc(F)c1Cl")
72

For the molecule shown here, COc1cc2ncn(-c3cc(OCc4ccccc4C(F)(F)F)c(C(N)=O)s3)c2cc1OC , give the reported kinase still bound, per cent of control.
94

Please do the same for COCC(=O)NC/C=C/c1ccc2ncnc(Nc3ccc(Oc4ccc(C)nc4)c(C)c3)c2c1 as well.
89

Try this molecule too: O=c1cc(N2CCOCC2)oc2c(-c3cccc4c3sc3ccccc34)cccc12
94

Now try COc1cc(C(=O)N2CCC(N3CCN(C)CC3)CC2)ccc1Nc1ncc2c(n1)N(C)c1ccccc1C(=O)N2C .
98

Now try Cc1n[nH]c2ccc(-c3cncc(OC[C@@H](N)Cc4c[nH]c5ccccc45)c3)cc12 .
16

====

Target: NTRK2 (human)
Experiment: KINOMEscan competition binding
Conditions: compound 10.0 µM
Sorting guide: entries reporting kinase still bound, per cent of control beneath 50% go in the Fulfilled pile, the rest go in the Not fulfilled pile.

Example entries begin here.
>>> category("COc1ccc(N(C(=O)Oc2c(C)cccc2C)c2ccnc(Nc3ccc(N4CCN(C)CC4)cc3)n2)c(OC)c1")
"Not fulfilled"
>>> category("COc1cc2ncnc(-n3nc(-c4ccccn4)nc3N)c2cc1OC")
"Fulfilled"

Confirm or reject: kinase still bound, per cent of control of COc1cc2ncn(-c3cc(OCc4ccccc4C(F)(F)F)c(C(N)=O)s3)c2cc1OC lies strictly below 50%
Not fulfilled

Again, but for O=c1cc(N2CCOCC2)oc2c(-c3cccc4c3sc3ccccc34)cccc12
Not fulfilled

Follow-up item: C[C@@H](Oc1cc(-c2cnn(C3CCNCC3)c2)cnc1N)c1c(Cl)ccc(F)c1Cl
Fulfilled
